System: green foxtail (Setaria viridis)
test: Test A preemergence soil spray, visual injury rating 0-100
Format: in vivo
condition.label: 16 g ai/ha, 0 to 100 scale, 10 days
readout: Foxtail, Green plant response rating
When you answer, write just the number.

COC(=O)C1C=CC(NC(=O)C2(C)CN(c3cc(F)cc(F)c3)C(=O)O2)C1 (stereo not drawn)
10
COC(=O)C1=CCC(NC(=O)C2(C)CN(c3cc(F)c(F)c(F)c3)C(=O)O2)C1 (mixture of isomers)
0

Continue with the next molecule.
Asked: Requested field: Foxtail, Green plant response rating. Item: CCOC(=O)C1=CCC(NC(=O)C2(C)CN(c3cc(F)cc(F)c3)C(=O)O2)C1 (stereo not drawn)
Given back: 0

* * *

Tested on: corn (Zea mays)
test: Test A postemergence application, visual injury rating 0-100
Format: in vivo
condition.label: Postemergence, 16 g ai/ha, greenhouse 10 days; 0 no effect, 100 complete control
readout: Corn plant response rating (0 to 100 scale)
Please give the numeric answer without any surrounding text.

Worked cases, Corn plant response rating (0 to 100 scale) given:
CC1(C(=O)NC2CC=C(C(=O)OCC(F)F)C2)CN(c2cc(Cl)cc(Cl)c2)C(=O)O1 (stereo not drawn) [Compound 153]
0
COC(=O)COC(=O)C1=CCC(NC(=O)C2(C)CN(c3cc(Cl)cc(Cl)c3)C(=O)O2)C1 (stereo not drawn) [Compound 109]
0
CC1(C(=O)NC2CC=C(C(=O)NS(C)(=O)=O)C2)CN(c2cc(F)cc(F)c2)C(=O)O1 (racemic) [Compound 103]
10

Asked: I would be grateful if you could share the reported Corn plant response rating (0 to 100 scale) for CC(C)COC(=O)C1=CCC(NC(=O)C2(C)CN(c3cc(Cl)cc(Cl)c3)C(=O)O2)C1 (stereo not drawn) [Compound 156] .
Given back: 90

Asked: Entry COC(=O)C1=CCC(NC(=O)C2(C)CN(c3cc(Cl)cc(Cl)c3)C(=O)O2)C1 (stereo not drawn) [Compound 148] has what Corn plant response rating (0 to 100 scale)?
Given back: 0

Asked: Using the record for CC(C)OC(=O)C1=CCC(NC(=O)C2(C)CN(c3cc(F)cc(F)c3)C(=O)O2)C1 (stereo not drawn) [Compound 100] , report its Corn plant response rating (0 to 100 scale).
Given back: 100

Asked: What does the record list as Corn plant response rating (0 to 100 scale) for CC1(C(=O)NC2CC=C(C(=O)NS(=O)(=O)C3CC3)C2)CN(c2cc(F)cc(F)c2)C(=O)O1 (racemic) [Compound 90] ?
Given back: 30

Asked: What does the record list as Corn plant response rating (0 to 100 scale) for C=CC1(C(=O)NC2CC=C(C(=O)OC)C2)CN(c2cc(F)cc(F)c2)C(=O)O1 (racemic) [Compound 169] ?
Given back: 100

Asked: For the compound shown here, COC(=O)C1CC(NC(=O)C2(C)CN(c3cc(F)cc(F)c3)C(=O)O2)C1 (stereo not drawn) [Compound 117] , give the reported Corn plant response rating (0 to 100 scale).
Given back: 0

* * *

Test system: wheat (Triticum aestivum)
test: Test A preemergence soil spray, visual injury rating 0-100
Format: in vivo
condition.label: 125 g ai/ha, 10 days, 0 = no effect, 100 = complete control
readout: Wheat plant response rating (0 to 100 scale)

CC1(C(=O)NC2CC=C(C(=O)NS(=O)(=O)C3CC3)C2)CN(c2cc(Cl)cc(Cl)c2)C(=O)O1 (centres unmarked) [Compound 75]
40
CSCCOC(=O)C1C=CC(NC(=O)C2(C)CN(c3cc(Cl)cc(Cl)c3)C(=O)O2)C1 (centres unmarked) [Compound 45]
90
CC1(C(=O)NC2CCC(C(=O)O)C2)CN(c2cc(F)cc(F)c2)C(=O)O1 (centres unmarked) [Compound 9]
90
CC(=O)COC(=O)C1C=CC(NC(=O)C2(C)CN(c3cc(Cl)cc(Cl)c3)C(=O)O2)C1 (centres unmarked) [Compound 67]
90
CC1(C(=O)NC2C=CC(C(=O)OCC#N)C2)CN(c2cc(F)cc(F)c2)C(=O)O1 (centres unmarked) [Compound 35]
90
CNC(=O)C1CC(NC(=O)C2(C)CN(c3cc(F)cc(F)c3)C(=O)O2)CO1 (centres unmarked) [Compound 8]
80
CNC(=O)C1C=CC(NC(=O)C2(C)CN(c3cc(Cl)cc(Cl)c3)C(=O)O2)C1 (centres unmarked) [Compound 47]
20

Pending compound:
Asked: Name the recorded Wheat plant response rating (0 to 100 scale) for CC(C)COC(=O)C1=CCC(NC(=O)C2(C)CN(c3cc(F)cc(F)c3)C(=O)O2)C1 (centres unmarked) [Compound 16] .
Given back: 80

* * *

// reported Blackgrass plant response rating (0-100) per item
Tested on: blackgrass (Alopecurus myosuroides)
test: Test A postemergence application, visual injury rating 0-100
Assay type: in vivo
condition.label: 62 g ai/ha, postemergence, 10 days, 0 = no effect, 100 = complete control

Examples with answers:
CCOC(=O)C1=CCC(NC(=O)C2(C)CN(c3cc(F)cc(F)c3)C(=O)O2)C1 (centres unmarked)
0
C=CC1(C(=O)NC2COC(C(=O)OC)C2)CN(c2cc(F)cc(F)c2)C(=O)O1 (centres unmarked)
0

Asked: Recorded Blackgrass plant response rating (0-100) of CC(C)OC(=O)C1=CCC(NC(=O)C2(C)CN(c3cc(F)cc(F)c3)C(=O)O2)C1 (centres unmarked) , please.
Given back: 0

Asked: What value of measured Blackgrass plant response rating (0-100) is listed for CSCCOC(=O)C1=CCC(NC(=O)C2(C)CN(c3cc(Cl)cc(Cl)c3)C(=O)O2)C1 (centres unmarked) ?
Given back: 0

Asked: Requested read-out: Blackgrass plant response rating (0-100). Entry: COC(=O)C1C=CC(NC(=O)C2(C)CN(c3cccc(OC(F)(F)F)c3)C(=O)O2)C1 (mixture of isomers)
Given back: 90

Asked: Data request, read-out Blackgrass plant response rating (0-100), for C=CC1(C(=O)NC2CC(C(=O)OC)C2)CN(c2cc(F)cc(F)c2)C(=O)O1 (centres unmarked)
Given back: 0

Asked: So what does the record say about Blackgrass plant response rating (0-100) for CCOC(=O)C1C=CC(NC(=O)C2(C)CN(c3cc(C)cc(C)c3)C(=O)O2)C1 (centres unmarked) ?
Given back: 90

Asked: Find the recorded Blackgrass plant response rating (0-100) belonging to C=CC1(C(=O)NC2C=CC(C(=O)OC)C2)CN(c2cc(F)cc(F)c2)C(=O)O1 (single isomer, unassigned) and report it.
Given back: 90

Asked: Request the reported Blackgrass plant response rating (0-100) associated with COC(=O)COC(=O)C1=CCC(NC(=O)C2(C)CN(c3cc(F)cc(F)c3)C(=O)O2)C1 (centres unmarked)
Given back: 90

Asked: Could you share which Blackgrass plant response rating (0-100) value was measured for CC1(C(=O)NC2CC=C(C(=O)NS(=O)(=O)c3ccccc3)C2)CN(c2cc(F)cc(F)c2)C(=O)O1 (racemic) ?
Given back: 70

Asked: Return reported Blackgrass plant response rating (0-100); argument: CSCCOC(=O)C1=CCC(NC(=O)C2(C)CN(c3cc(F)cc(Cl)c3)C(=O)O2)C1 (centres unmarked)
Given back: 100

Asked: I would be grateful if you could share the reported Blackgrass plant response rating (0-100) for CC1(C(=O)NC2CC(C(=O)O)C2)CN(c2cc(F)cc(F)c2)C(=O)O1 (centres unmarked) .
Given back: 100

Asked: Data request, read-out Blackgrass plant response rating (0-100), for COC(=O)C1C=CC(NC(=O)C2(C)CN(c3cc(F)cc(F)c3)C(=O)O2)C1 (centres unmarked)
Given back: 0

Asked: Request the reported Blackgrass plant response rating (0-100) associated with CSCCOC(=O)C1CC(NC(=O)C2(C)CN(c3cc(F)cc(F)c3)C(=O)O2)C1 (racemic)
Given back: 90

Asked: GET /values?readout=Blackgrass plant response rating (0-100)&item= COC(=O)C1CC(NC(=O)C2(C)CN(c3cc(F)cc(Cl)c3)C(=O)O2)C1 (centres unmarked)
Given back: 100

Asked: Blackgrass plant response rating (0-100) for COC(=O)C1CC(NC(=O)C2(C)CN(c3cc(F)cc(F)c3)C(=O)O2)C1 (centres unmarked) [Compound 130] ?
Given back: 90

Asked: What measured Blackgrass plant response rating (0-100) goes with CCOC(=O)C1=CCC(NC(=O)C2(C)CN(c3cc(Cl)cc(Cl)c3)C(=O)O2)C1 (centres unmarked) ?
Given back: 80

Asked: Please look up its Blackgrass plant response rating (0-100): COC(=O)C1CC(NC(=O)C2(C)CN(c3cc(F)cc(F)c3)C(=O)O2)C1 (centres unmarked) [Compound 118]
Given back: 100

Asked: Look up Blackgrass plant response rating (0-100) for this molecule: CC(C)OC(=O)C1=CCC(NC(=O)C2(C)CN(c3cc(Cl)cc(Cl)c3)C(=O)O2)C1 (centres unmarked)
Given back: 10

Asked: Need Blackgrass plant response rating (0-100), item C=CC1(C(=O)NC2CC=C(C(=O)OC)C2)CN(c2cc(F)cc(F)c2)C(=O)O1 (racemic)
Given back: 100

Asked: Looking for the measured Blackgrass plant response rating (0-100) of CC1(C(=O)NC2CC=C(C(=O)NS(C)(=O)=O)C2)CN(c2cc(F)cc(F)c2)C(=O)O1 (racemic) , can you help?
Given back: 40

Asked: Field request: Blackgrass plant response rating (0-100) | item: CC1(C(=O)NC2CC=C(C(=O)NS(=O)(=O)C3CC3)C2)CN(c2cc(F)cc(F)c2)C(=O)O1 (racemic)
Given back: 80

Asked: May I ask what Blackgrass plant response rating (0-100) has been recorded for CC1(C(=O)NC2CC=C(C(=O)OCC(F)F)C2)CN(c2cc(F)cc(F)c2)C(=O)O1 (centres unmarked) ?
Given back: 0
